Data origin, for the record: patent US20260144788A1

# SUBJECT OF TEST: UniProt Q06124
# TEST NAME: Measurement of SHP2 protein degradation in NCI-H358 cells (western blotting)
# Format: cell-based
# Set-up: endogenous in cells; host or cells: NCI-H358
# MEASUREMENT CONDITIONS: 0.01 μM, harvested after 24 hours
METRIC NAME: SHP2% degradation (%)

Cc1cn([C@H](C(=O)N2C[C@H](O)C[C@H]2C(=O)NCc2ccc(-c3scnc3C)cc2OC2CCN(C(=O)C3CCN(c4nccc(Sc5cnc(N6CCC(C)(N)CC6)c(CO)n5)c4Cl)CC3)CC2)C(C)C)nn1 [Example 109]: 99.0
Cc1ncsc1-c1ccc(CNC(=O)[C@@H]2C[C@@H](O)CN2C(=O)[C@@H](NC(=O)C2(F)CC2)C(C)(C)C)c(O[C@H]2CC[C@H](C(=O)N3CC(Nc4nccc(Sc5cnc(N6CCC7(CC6)CO[C@@H](C)[C@H]7N)cn5)c4Cl)C3)CC2)c1 [Example 22]: 95.7
CC(=O)N[C@H](C(=O)N1C[C@H](O)C[C@H]1C(=O)N[C@@H](C)c1ccc(-c2scnc2C)cc1O[C@H]1CC[C@H](C(=O)N2CC(Nc3cccc(Sc4cnc(N5CCC(C)(CN)CC5)cn4)c3Cl)C2)CC1)C(C)(C)C [Example 48]: 88.8
Cc1cc(C(C(=O)N2C[C@H](O)C[C@H]2C(=O)NCc2ccc(-c3scnc3C)cc2OC2CCN(C(=O)C3CCN(c4nccc(Sc5cnc(N6CCC(C)(CN)CC6)c(CO)n5)c4Cl)CC3)CC2)C(C)C)on1 (stereo partly drawn) [Example 96]: 98.9
CC(=O)N[C@H](C(=O)N1C[C@H](O)C[C@H]1C(=O)NCc1ccc(-c2scnc2C)cc1OC1CCN(C(=O)C2CCN(c3nccc(Sc4nc(CO)c(N5CCC(C)(CN)CC5)nc4C)c3Cl)CC2)CC1)C(C)(C)C [Example 81]: 85.6
CC(=O)N[C@H](C(=O)N1C[C@H](O)C[C@H]1C(=O)NCc1ccc(-c2scnc2C)cc1OC1CCN(C(=O)C2CCN(c3cccc(Sc4cnc(N5CCC(C)(CN)CC5)cn4)c3Cl)CC2)CC1)C(C)(C)C [Example 82]: 94.9
Cc1ncsc1-c1ccc(CNC(=O)[C@@H]2C[C@@H](O)CN2C(=O)[C@H](C(C)C)n2cc(C3CC3)nn2)c(OC2CCN(C(=O)C3CCN(c4nccc(Sc5cnc(N6CCC(C)(CN)CC6)cn5)c4Cl)CC3)CC2)c1 [Example 101]: 96.3
CC(=O)N[C@H](C(=O)N1C[C@H](O)C[C@H]1C(=O)NCc1ccc(-c2scnc2C)cc1O[C@H]1CC[C@H](C(=O)N2CCC(N3CCc4c(Sc5cnc(N6CCC7(CC6)CO[C@@H](C)[C@H]7N)cn5)cccc43)CC2)CC1)C(C)(C)C [Example 33]: 96.6
Cc1cn([C@H](C(=O)N2C[C@H](O)C[C@H]2C(=O)NCc2ccc(Cl)cc2OC2CCN(C(=O)C3CCN(c4nccc(Sc5cnc(N6CCC7(CC6)CO[C@@H](C)[C@H]7N)c(CO)n5)c4Cl)CC3)CC2)C(C)C)nn1 [Example 112]: 93.8

###

# SUBJECT OF TEST: SHP2 protein (Homo sapiens, UniProt Q06124)
# Sequence (Q06124 1-593): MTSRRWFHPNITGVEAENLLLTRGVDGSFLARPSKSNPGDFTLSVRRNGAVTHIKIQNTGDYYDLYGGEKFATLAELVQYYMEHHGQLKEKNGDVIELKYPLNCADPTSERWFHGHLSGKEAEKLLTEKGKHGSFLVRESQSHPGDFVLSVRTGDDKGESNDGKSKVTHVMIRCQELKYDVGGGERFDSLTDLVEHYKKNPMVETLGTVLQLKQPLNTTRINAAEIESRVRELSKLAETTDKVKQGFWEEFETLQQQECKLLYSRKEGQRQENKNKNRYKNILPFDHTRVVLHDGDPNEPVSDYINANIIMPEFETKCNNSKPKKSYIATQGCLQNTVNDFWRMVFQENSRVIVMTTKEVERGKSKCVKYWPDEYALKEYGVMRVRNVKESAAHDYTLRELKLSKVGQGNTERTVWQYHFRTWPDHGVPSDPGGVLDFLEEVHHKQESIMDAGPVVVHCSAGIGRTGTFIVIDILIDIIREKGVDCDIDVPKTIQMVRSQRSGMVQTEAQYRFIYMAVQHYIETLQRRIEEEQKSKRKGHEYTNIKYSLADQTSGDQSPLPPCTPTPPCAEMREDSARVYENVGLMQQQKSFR
# TEST NAME: Measurement of SHP2 protein degradation in MV-4-11 cells (western blotting)
# Format: cell-based
# Design: endogenous in cells
# MEASUREMENT CONDITIONS: 0.01 μM, harvested after 24 hours
METRIC NAME: SHP2% degradation (%)

CC(=O)N[C@H](C(=O)N1C[C@H](O)C[C@H]1C(=O)NCc1ccc(-c2scnc2C)cc1O[C@H]1CC[C@H](C(=O)N2CC(Nc3cccc(Sc4cnc(N5CCC6(CC5)Cc5ccccc5[C@H]6N)cn4)c3Cl)C2)CC1)C(C)(C)C: 86.1

P. Cc1ncsc1-c1ccc(CNC(=O)[C@@H]2C[C@@H](O)CN2C(=O)[C@@H](NC(=O)C2(F)CC2)C(C)(C)C)c(OC2CCN(C(=O)CC3(O)CCN(c4nccc(Sc5cnc(N6CCC(C)(CN)CC6)cn5)c4Cl)CC3)CC2)c1
Q. Cc1ncsc1-c1ccc(CNC(=O)[C@@H]2C[C@@H](O)CN2C(=O)[C@@H](NC(=O)C2(F)CC2)C(C)(C)C)c(OCCN2CCC(C(=O)N3CCC(Nc4cccc(Sc5cnc(N6CCC(C)(CN)CC6)cn5)c4Cl)CC3)CC2)c1
When their SHP2% degradation values are compared, which is larger, P or Q ? Please identify the chosen entry by its label. P
(P: 91.5%, Q: 32.9%)

A. Cc1ncsc1-c1ccc(CNC(=O)[C@@H]2C[C@@H](O)CN2C(=O)[C@@H](NC(=O)C2(F)CC2)C(C)(C)C)c(O[C@H]2CC[C@H](C(=O)N3CC(Nc4cccc(Sc5cnc(N6CCC(C)(N)CC6)cn5)c4Cl)C3)CC2)c1
B. Cc1ncsc1-c1ccc(CNC(=O)[C@@H]2C[C@@H](O)CN2C(=O)[C@@H](NC(=O)C2(F)CC2)C(C)(C)C)c(O[C@H]2CC[C@H](CN3CCC(Nc4cccc(Sc5cnc(N6CCC(C)(CN)CC6)cn5)c4Cl)CC3)CC2)c1
C. Cc1ncsc1-c1ccc(CNC(=O)[C@@H]2C[C@@H](O)CN2C(=O)[C@@H](NC(=O)C2(F)CC2)C(C)(C)C)c(OCCC2CCN(C(=O)C3CCN(c4nccc(Sc5cnc(N6CCC(C)(CN)CC6)cn5)c4Cl)CC3)CC2)c1
D. Cc1ncsc1-c1ccc(CNC(=O)[C@@H]2C[C@@H](O)CN2C(=O)[C@@H](NC(=O)C2(F)CC2)C(C)(C)C)c(O[C@H]2CC[C@H](CN3CC(Nc4cccc(Sc5cnc(N6CCC(C)(CN)CC6)cn5)c4Cl)C3)CC2)c1
Exam item: list the entries in increasing order of SHP2% degradation. Answer by writing out the labels in the requested order. B, D, C, A
